# measurementDescription: High-humidity stability test
# Type: physicochemical
# assayConditions: solid storage, 90% rh, 25°C, 90% ± 5% RH, 30 day, HPLC, read-out: Purity (%)
metric: remaining at 720 h

Reported remaining at 720 h ( COC(=O)Nc1c(N)nc(-c2nn(Cc3ccccc3F)c3c(F)cccc23)nc1N [Crystal Form II] ) = 100%

###

# measurementDescription: Accelerated stability test
# Format: physicochemical
# assayConditions: solid storage, 75% rh; 40°C ± 2°C / 75% ± 5% RH, 1 month; read-out: Purity (%)
# Description: • (1) High-Temperature Test: Place an appropriate amount of the test sample in a flat weighing bottle, spreading it into a thin layer ≤5 mm thick. Store at 60°C ± 2°C for 30 days. Collect samples at 0, 5, 10, and 30 days for analysis according to the key stability test items. Observe any color changes and determine purity by HPLC. • (2) High-Humidity Test: Place an appropriate amount of the test sample from one batch in a flat weighing bottle, spreading it into a thin layer ≤5 mm thick. […]
metric: remaining at 720 h
Don't forget the unit after the value.

// recorded remaining at 720 h for COC(=O)Nc1c(N)nc(-c2nn(Cc3ccccc3F)c3c(F)cccc23)nc1N [Crystal Form II] : 100%

###

# measurementDescription: Accelerated stability test
# Format: physicochemical
# assayConditions: solid storage, 75% rh; 40°C ± 2°C / 75% ± 5% RH, 2 month; read-out: Purity (%)
# Procedure: • (1) High-Temperature Test: Place an appropriate amount of the test sample in a flat weighing bottle, spreading it into a thin layer ≤5 mm thick. Store at 60°C ± 2°C for 30 days. Collect samples at 0, 5, 10, and 30 days for analysis according to the key stability test items. Observe any color changes and determine purity by HPLC. • (2) High-Humidity Test: Place an appropriate amount of the test sample from one batch in a flat weighing bottle, spreading it into a thin layer ≤5 mm thick. […]
metric: remaining at 1440 h (%)
Numeric answer only, unit % assumed.

Sample COC(=O)Nc1c(N)nc(-c2nn(Cc3ccccc3F)c3c(F)cccc23)nc1N [Crystal Form II] ; remaining at 1440 h observed: 100

###

# measurementDescription: Accelerated stability test
# Format: physicochemical
# assayConditions: solid storage, 75% rh; 40°C ± 2°C / 75% ± 5% RH, 3 month; read-out: Purity (%)
metric: remaining at 2160 h (%)
Kindly provide the numeric value in % only, without the unit symbol.

Notebook: COC(=O)Nc1c(N)nc(-c2nn(Cc3ccccc3F)c3c(F)cccc23)nc1N [Crystal Form II] , remaining at 2160 h read as 100

###

# measurementDescription: Accelerated stability test
# Assay type: physicochemical
# assayConditions: solid storage, 75% rh; 40°C ± 2°C / 75% ± 5% RH, 6 month; read-out: Purity (%)
metric: remaining at 4320 h (%)
Give the number; % is assumed, so skip it.

The measured remaining at 4320 h associated with COC(=O)Nc1c(N)nc(-c2nn(Cc3ccccc3F)c3c(F)cccc23)nc1N [Crystal Form II] reads 99.9

Source listed as patent EP4640676A1.
